# Target desc: Rap guanine nucleotide exchange factor 3 (Homo sapiens)
# Protocol notes: Confirmatory qHTS for antagonist of cAMP-regulated guanine nucleotide exchange factor 3 (EPAC1) (AID 1645880); further: nearly all actives have a fitted effect of over 55% in size
# Settings: EPAC1 Rap1B-BODIPY-GDP exchange, fluorescence; series mostly up to 115 µM
Records with an inconclusive call do not appear. Activity calls are given as the source filed them. The call rests on the fitted dose curve; in most records, active means well fitted inhibition curve with a large enough effect; inconclusive means small, poorly fitted or top-dose-only effect; inactive means no such curve, though single readings can be large or run the other way.
Classes used: active, inactive

Compound: COc1cc(C=NNc2ccc(S(=O)(=O)Nc3ccccc3C(=O)O)cc2[N+](=O)[O-])ccc1O
Category label: active

Compound: CCCN(CC(=O)Nc1ccccc1C)C(=O)C1CCN(S(=O)(=O)c2ccccc2C(F)(F)F)CC1
Category label: inactive

Compound: COc1ccc(NC(=O)c2ccc3c(SCC(=O)O)c4c(nc3c2)CCCC4)c(OC)c1
Category label: active

Compound: Cc1ccc(CN(C(=O)COc2cccc(Cl)c2)c2ccccn2)o1
Category label: inactive

Compound: CC1CC1C(=O)OCC(=O)NNC(=O)COc1ccc(Br)cc1 (stereo not given)
Category label: inactive

Compound: COC(=O)c1cc2oc(C)cc2n1Cc1cccc(Cl)c1
Category label: inactive

Compound: O=C(Nc1ccc(Cl)cc1C(=O)O)c1ccc2c(c1)C(=O)N(Cc1ccco1)C2=O
Category label: active

Compound: Cc1ccccc1-c1cc(C(=O)NCc2ccc3c(c2)OCO3)n(CC2CC(c3cccnc3)=NO2)n1 (stereo not given)
Category label: inactive

Compound: Cc1ccc(S(=O)(=O)NC(=O)Cn2nnc(-c3ccccc3)c2COc2ccc3ccccc3c2)cc1
Category label: active

Compound: COc1cccc(NC(=O)CN(C)C(=O)CNC(=O)c2ccc(Oc3ccccc3)cc2)c1
Category label: inactive

###

# Target desc: Rap guanine nucleotide exchange factor 3 (Homo sapiens)
# Protocol notes: Counterscreen qHTS for antagonist of cAMP-regulated guanine nucleotide exchange factor 3 (EPAC1) (AID 1645888);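 further: fluorescence loss as bound BODIPY-GDP is released from Rap1B; % of control where 0% means no effect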
# Settings: Rap1B-BODIPY-GDP nucleotide exchange, fluorescence; series mostly up to 154 µM
Inconclusive results are not listed. The source made the active and inactive calls. Calls follow the shape of the dose curve; as a rule, active = well fitted inhibition curve with a large enough effect; inconclusive = small, poorly fitted or top-dose-only effect; inactive = no such curve, though single readings can be large or run the other way.

Compound: O=C1Nc2c(Cl)cc(Cl)cc2C1=O
activity change, negative = inhibition: inactive
//
Compound: CC(=O)NC(CCS(C)(=O)=O)C(=O)Nc1cccc(C)c1C (stereo unspecified)
activity change, negative = inhibition: inactive
//
Compound: COc1ccc(CCNC(=O)CCc2nc3sc4c(c3c(=O)[nH]2)CCCC4)cc1
activity change, negative = inhibition: inactive
//
Compound: Cc1cc(Br)c2c(c1)C(O)(N1CCCCC1C)C(=O)N2 (stereo unspecified)
activity change, negative = inhibition: -0.193% [at 30.8 µM] (inactive)
//
Compound: CC(/C=C1\SC(=S)N(C(C(=O)O)C(C)C)C1=O)=C\c1ccccc1 (stereo unspecified)
activity change, negative = inhibition: inactive
//
Compound: S=C(Nc1ccccc1)Nc1ccccn1
activity change, negative = inhibition: 9.21% [at 30.8 µM] (inactive)
//
Compound: CC(C(=O)Nc1ccccc1-c1ccccc1)N1CCN(C(=O)c2ccccc2)CC1 (stereo unspecified)
activity change, negative = inhibition: 16.7% [at 30.8 µM] (inactive)
//
Compound: CSc1nc(N2CCOCC2)c2c3c(sc2n1)CCCC3
activity change, negative = inhibition: inactive
//
Compound: O=C(CN(c1ccc(Cl)c(C(F)(F)F)c1)S(=O)(=O)c1ccccc1)N1CCc2ccccc2C1
activity change, negative = inhibition: inactive
//
Compound: COc1ccc(C(C#N)N2N=C(C)CC2c2ccccc2)cc1 (stereo unspecified)
activity change, negative = inhibition: inactive
//
Compound: CC1(C(=O)NS(=O)(=O)c2ccc(Cl)s2)CCN1C(=O)C1(c2ccc(Cl)cc2)CC1 (stereo unspecified)
activity change, negative = inhibition: -17.9% [at 30.8 µM] (inactive)

###

# Protocol notes: qHTS drug screen for cell cycle checkpoint inhibitors in PARPi-resistant BRCA-mutant ovarian cancer cell lines. (AID 1963452)
# Settings: PEO1/OlaR viability, CellTiter-Glo luminescence, 96 h; measured here: PEO4 Z-AUC; stronger effect = lower value
Where a SMILES comes first, the peptide text is derived from it. [ ]: non-standard residue; d: D form. Dip = N[C@H](C(=O)O)C(c1ccccc1)c1ccccc1
Z-AUC listing for selected compounds.
Endpoint label: Z-AUC

Compound: NCCCC[C@H](NC(=O)[C@@H](NC(=O)[C@H](Cc1c[nH]c2ccccc12)NC(=O)[C@H](CCCCN)NC(=O)[C@H](CCCCN)NC(=O)[C@H](Cc1c[nH]c2ccccc12)NC(=O)[C@H](Cc1c[nH]c2ccccc12)NC(=O)[C@H](CCCCN)NC(=O)[C@@H](N)CCCCN)C(c1ccccc1)c1ccccc1)C(N)=O (H-KKWWKKW[Dip]K-NH2)
Result: 0.857
--
Compound: [O-][n+]1cccc(-c2nc3c(Cl)cccc3cc2[C@@H](Nc2ncnc3cccnc23)C(F)(F)F)c1
Result: 0.695
--
Compound: CCCCCCCOc1ccc(CCC(N)(CO)CO)cc1C(F)(F)F
Result: -1.35
--
Compound: CC1=C(c2ccc(O)cc2)[C@H](c2ccc(OCCN3CCCCC3)cc2)Oc2cc(O)ccc21
Result: -0.752
--
Compound: C=CC(=O)N[C@H]1CN(c2nc(Nc3cn(C)nc3OC)c3ncn(C)c3n2)C[C@@H]1F
Result: 0.231
--
Compound: C[C@@H]1CC2C3C[C@H](F)C4=CC(=O)C=C[C@]4(C)[C@@]3(F)[C@@H](O)C[C@]2(C)[C@@]1(OC(=O)c1ccco1)C(=O)SCF (stereo partly specified)
Result: -0.282

###

activity change, negative = inhibition listing for selected compounds.
# Protocol notes: qHTS Assay for Lipid Storage Modulators (AID 1519); further: on the % scale 0 is the no-effect control and ±100 the full control effect
# Settings: Drosophila S3 cells, BODIPY lipid droplet/cell ratio, laser cytometry; at 25.7 µM (top of the series); cells loaded with oleic acid
Inconclusive results are not listed. Activity calls are given as the source filed them. The call rests on the fitted dose curve. Starred links: 1 amine or outer side, 2 acyl side, 3 side chain; linkers in the order of their positions; H or OH if unused. Positions of bridges follow the written chain, without caps; N, C: chain ends. Non-standard residues stand in square brackets, D forms with d. Residues, ends and D or L forms follow the SMILES beside them. *: point of attachment. X1 = NC1=N[C@@H](O)C[C@@H]([C@@H](N[*:1])C(=O)[*:2])N1; ΔAla(Z-3-ureido) = NC(=O)N/C=C(\N)C(=O)O; β3hOrn = NCCC[C@H](N)CC(=O)*; Dap = NC[C@H](N)C(=O)O

Compound: CC(C)(CO)[C@H](O)C(=O)NCCCO
activity change, negative = inhibition: -3.05% (inactive)

Compound: C=C1CC23C[C@H]4[C@@H]5[C@@]6(C)C[C@H](OC(=O)c7ccccc7)[C@@H](OC(C)=O)[C@]57[C@@H]2[C@@H](OC(C)=O)[C@H]1[C@@H](O)[C@H]3[C@H]7N4C6
activity change, negative = inhibition: -1.43% (inactive)

Compound: Cn1nnnc1SCC1=C(C(=O)O)N2C(=O)[C@@H](NC(=O)[C@@H](O)c3ccccc3)[C@@H]2SC1
activity change, negative = inhibition: 2.73% (inactive)

Compound: COC(=O)[C@@H]1[C@@H]2C[C@H]3c4[nH]c5cc(OC)ccc5c4CCN3C[C@@H]2C[C@H](OC(=O)c2cc(OC)c(OC)c(OC)c2)[C@H]1OC
activity change, negative = inhibition: -6.07% (inactive)

Compound: C[C@@H]1C[C@@H]2[C@H]3CCC4=CC(=O)C=C[C@]4(C)[C@]3(F)[C@@H](O)C[C@]2(C)[C@@]1(O)C(=O)CO
activity change, negative = inhibition: -3.53% (inactive)

Compound: NCCC[C@H](N)CC(=O)N[C@H]1CNC(=O)[C@@H]([C@@H]2C[C@H](O)N=C(N)N2)NC(=O)/C(=C/NC(N)=O)NC(=O)[C@@H](CO)NC(=O)[C@@H](CO)NC1=O (β3hOrn-[Dap][dS][dS][ΔAla(Z-3-ureido)][X1]; lactam 1-C)
activity change, negative = inhibition: 0.925% (inactive)

Compound: O=C(N[C@@H](CO)[C@@H](O)c1ccc([N+](=O)[O-])cc1)C(Cl)Cl
activity change, negative = inhibition: -1.53% (inactive)

Compound: CCC(=O)[C@@]1(C)[C@H](C)C[C@@H]2[C@@H]3CCC4=CC(=O)C=C[C@@]4(C)[C@H]3[C@H](O)C[C@]21C
activity change, negative = inhibition: -1.25% (inactive)

Compound: CN(C/C=C\c1ccccc1)Cc1cccc2ccccc12
activity change, negative = inhibition: -0.644% (inactive)

Compound: CC(=O)OCC(=O)[C@@]1(O)CC[C@@H]2[C@H]3CCC4=CC(=O)C=C[C@]4(C)[C@]3(F)[C@@H](O)C[C@@]21C
activity change, negative = inhibition: 0.563% (inactive)

Compound: c1ccc2c(c1)CCCc1cc(NCCN3CCOCC3)nnc1-2
activity change, negative = inhibition: -1.57% (inactive)

Compound: C#C[C@]1(O)CC[C@@H]2[C@H]3CCC4=Cc5oncc5C[C@]4(C)[C@@H]3CC[C@@]21C
activity change, negative = inhibition: -2.17% (inactive)

Compound: C[C@H](Oc1ccccc1)C(=O)N[C@@H]1C(=O)N2[C@@H]1SC(C)(C)[C@@H]2C(=O)O
activity change, negative = inhibition: -0.821% (inactive)

Compound: Cc1ccsc1/C=C\C1=NCCCN1C
activity change, negative = inhibition: -1.64% (inactive)

Compound: NC(=O)N/N=C\c1ccc([N+](=O)[O-])o1
activity change, negative = inhibition: 0.117% (inactive)

Compound: OCCOCCN1CCN([C@@H](c2ccccc2)c2ccc(Cl)cc2)CC1
activity change, negative = inhibition: -0.885% (inactive)
